Please go through the items and note down their abundance fitness.
B1: KAT8 regulatory NSL complex subunit 2, residues 28 to 91; numbered along this chain, Q9H9L4 (parent)
chain: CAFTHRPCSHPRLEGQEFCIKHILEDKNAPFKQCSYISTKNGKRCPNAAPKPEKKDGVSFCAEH

Variants of: B1
Test: abundance fitness (aPCA) (normalised: wild type 0, dead -1); higher = more abundant; growth selection in yeast, the domain comes from the species named
Details: Homo sapiens
One number for each entry.

[[record]]
mutation_code = "C61V"
value_observed = -0.426

[[record]]
mutation_code = "K21Y"
value_observed = -0.227

[[record]]
mutation_code = "T4A"
value_observed = -0.404


Items follow; give abundance fitness for each.
1. T4W
2. K43C
3. D56N
4. F18R
5. A48R
6. C19Y
7. T4I

Solution:
1. -0.388
2. -0.141
3. -0.073
4. -0.325
5. -0.166
6. -1.38
7. -0.114

Fill in abundance fitness for each of the 5 variants listed.
1. R44Q
2. N41A
3. C45F
4. S35I
5. K40S

Solution:
1: 0.005; 2: -0.058; 3: -0.609; 4: -0.177; 5: -0.299

For each listed entry, give its abundance fitness.
1. R6G
2. N41H
3. D56S
4. P11M
5. P52S
6. E17I

Solution:
[-0.068, -0.115, -0.067, -0.092, -0.082, -0.036]

Respectfully, I request abundance fitness for each entry included below.
1. K40W
2. K51C
3. P7K
4. L24E

Solution:
1. -0.401
2. -0.072
3. -0.123
4. -0.234

Dear colleague, could you send me abundance fitness for each of the items below? Thanks.
1. G15D
2. E63L
3. S59N
4. T4Y
5. E17N
6. E17K
7. S38C
8. N28W

Solution:
-0.127
-0.17
-0.189
-0.15
-0.023
-0.15
-0.026
-0.312

Give abundance fitness for each listed item.
1. A2Q
2. H64S
3. L13E

Solution:
[-0.186, -0.315, -0.334]

Quick request: abundance fitness for each listed item, please.
1. S38W
2. K21N

Solution:
[-0.076, -0.125]

# batch size: 5; output abundance fitness per entry
1. L13A
2. Y36N
3. K51N
4. E25N
5. L24K

Solution:
-0.187
-0.157
-0.195
-0.203
-0.261
